Biological target: T1, human IL-18BP (human, UniProt O95998 31-194)
T1 construct: UniProt printed as 095998; also called hIL-18BP
T1 sequence: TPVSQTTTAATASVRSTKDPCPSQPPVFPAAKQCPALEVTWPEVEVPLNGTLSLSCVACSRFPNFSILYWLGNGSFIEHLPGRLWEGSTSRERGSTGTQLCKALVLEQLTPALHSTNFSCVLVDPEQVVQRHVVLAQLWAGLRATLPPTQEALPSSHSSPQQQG
Experiment: BLI, apparent KD
quantityKind: log10 Kd (log10 of the value in nM)
All values: log10 Kd [nM].

Example cases with answers are listed next.
SA301a HC-I99R (antibody, name in Kabat numbering, V domains shown, IgG1 kappa) VH: QVQLQESGPGLVKPSQTLSLTCTVSGYSITSDYNSHWIRQPPGKGLEWIGYIHYSGSTNYNPSLKSRVTISRDTSKNQFSLKLSSVTAADTAVYYCARNYGSRYVNYFDYWGQGTLVTVSS VL: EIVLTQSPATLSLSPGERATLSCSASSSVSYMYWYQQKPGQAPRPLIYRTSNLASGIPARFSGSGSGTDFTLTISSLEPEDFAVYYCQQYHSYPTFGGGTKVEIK : -0.34
SA301a HC-V100aR (antibody, name in Kabat numbering, V domains shown, IgG1 kappa) VH: QVQLQESGPGLVKPSQTLSLTCTVSGYSITSDYNSHWIRQPPGKGLEWIGYIHYSGSTNYNPSLKSRVTISRDTSKNQFSLKLSSVTAADTAVYYCARNYGSIYRNYFDYWGQGTLVTVSS VL: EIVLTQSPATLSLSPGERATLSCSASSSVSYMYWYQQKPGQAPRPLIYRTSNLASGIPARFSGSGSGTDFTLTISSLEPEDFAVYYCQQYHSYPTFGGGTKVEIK : -0.72
SA301a HC-I99F (antibody, name in Kabat numbering, V domains shown, IgG1 kappa) VH: QVQLQESGPGLVKPSQTLSLTCTVSGYSITSDYNSHWIRQPPGKGLEWIGYIHYSGSTNYNPSLKSRVTISRDTSKNQFSLKLSSVTAADTAVYYCARNYGSFYVNYFDYWGQGTLVTVSS VL: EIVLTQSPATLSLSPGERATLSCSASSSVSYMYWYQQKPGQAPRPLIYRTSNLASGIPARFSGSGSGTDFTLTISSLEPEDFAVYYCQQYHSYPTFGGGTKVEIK : -0.19
SA301a HC-I99H (antibody, name in Kabat numbering, V domains shown, IgG1 kappa) VH: QVQLQESGPGLVKPSQTLSLTCTVSGYSITSDYNSHWIRQPPGKGLEWIGYIHYSGSTNYNPSLKSRVTISRDTSKNQFSLKLSSVTAADTAVYYCARNYGSHYVNYFDYWGQGTLVTVSS VL: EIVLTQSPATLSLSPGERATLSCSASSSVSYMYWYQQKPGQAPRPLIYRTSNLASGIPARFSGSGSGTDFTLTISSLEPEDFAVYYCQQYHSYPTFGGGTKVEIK : -0.21

Shifting focus to the binder that follows.
Short answer for SA301a HC-N100bV (antibody, name in Kabat numbering, V domains shown, IgG1 kappa) VH: QVQLQESGPGLVKPSQTLSLTCTVSGYSITSDYNSHWIRQPPGKGLEWIGYIHYSGSTNYNPSLKSRVTISRDTSKNQFSLKLSSVTAADTAVYYCARNYGSIYVVYFDYWGQGTLVTVSS VL: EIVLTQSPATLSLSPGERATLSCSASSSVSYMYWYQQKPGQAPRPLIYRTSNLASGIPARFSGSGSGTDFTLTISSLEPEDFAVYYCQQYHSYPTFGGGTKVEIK : log10 Kd was 0.33

Just for reference, patent US20250368745A1 is where these values come from.
